# Target of assay: rat A1 cortical receptors (Rattus norvegicus)
# Construct: Rat cerebral cortical membranes and striatal membranes were prepared; from tissue; host or cells: rat cerebral cortex membranes
# Method: Radioligand binding, [3H]N6-phenylisopropyladenosine ([3H]PIA), rat cortical A1 receptors
# Experimental parameters: Table I; vs [3H]PIA (1 nM), rat A1 receptors; read-out: Ki (A1)
pKi: −log10 of the molar value.
Quantity kind: pKi

// worked examples, pKi included
Compound: COc1ccc(/C=C/c2nc3c(c(=O)n(C)c(=O)n3C)n2C)cc1 [Compound 29b]
Quantity kind: pKi
Test value: 4.85
//
Compound: COc1cc(/C=C/c2nc3c(c(=O)n(C)c(=O)n3C)n2C)cc(OC)c1OCCCCNC(=O)OC(C)(C)C [Compound 39]
Quantity kind: pKi
Test value: 4.96
//
Compound: CCCn1c(=O)c2c(nc(/C=C/c3cc(OC)c(OC)cc3OC)n2C)n(CCC)c1=O [Compound 56b]
Quantity kind: pKi
Test value: 6.16
//
Compound: CCCn1c(=O)c2[nH]c(/C=C/c3ccc(OC)c(OC)c3)nc2n(CCC)c1=O [Compound 52a]
Quantity kind: pKi
Test value: 7.15
//
Compound: CN(C)c1ccc(/C=C/c2nc3c([nH]2)c(=O)n(C)c(=O)n3C)cc1 [Compound 30a]
Quantity kind: pKi
Test value: 5.52
//
Compound: CCCn1c(=O)c2c(nc(/C=C/c3cccc([N+](=O)[O-])c3)n2C)n(CCC)c1=O [Compound 48]
Quantity kind: pKi
Test value: 6.57

[1] CCCn1c(=O)c2[nH]c(/C=C/c3cc(F)cc(F)c3)nc2n(CCC)c1=O [Compound 54a]
[2] Cn1c(=O)c2[nH]c(/C=C/c3ccccc3)nc2n(C)c1=O [Compound 15a]
Req: Field: entry with larger pKi (options 1 / 2 ). In your reply, give the label of the chosen option.
Resp: 1

###

# Target of assay: rat striatal A2a receptors (Rattus norvegicus, UniProt P30543)
# Sequence (P30543 whole entry): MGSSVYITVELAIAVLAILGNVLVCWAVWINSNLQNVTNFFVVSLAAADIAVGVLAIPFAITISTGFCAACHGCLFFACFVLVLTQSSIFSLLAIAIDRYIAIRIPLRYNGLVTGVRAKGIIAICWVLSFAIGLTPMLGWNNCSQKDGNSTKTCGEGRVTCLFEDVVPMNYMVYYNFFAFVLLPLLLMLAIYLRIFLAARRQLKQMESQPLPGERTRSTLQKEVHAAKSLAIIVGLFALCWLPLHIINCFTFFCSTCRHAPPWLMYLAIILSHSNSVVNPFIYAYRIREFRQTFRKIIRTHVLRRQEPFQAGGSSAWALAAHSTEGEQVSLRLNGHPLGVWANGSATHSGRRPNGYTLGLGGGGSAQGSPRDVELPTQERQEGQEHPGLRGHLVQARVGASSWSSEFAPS
# Method: Radioligand binding, [3H]CGS 21680, rat striatal A2a receptors
# Design: Rat cerebral cortical membranes and striatal membranes were prepared; from tissue; host or cells: rat striatal membranes
# Experimental parameters: Ki (A2a)
Quantity kind: Ki (nM)
Number in nM, nothing else.

Field Ki (entry Cn1c(=O)c2c(nc(/C=C/c3cccc(N=C=S)c3)n2C)n(C)c1=O [Compound 28e] ) reads 111

###

# Method: Aqueous solubility
# Experimental parameters: injection vehicle
Quantity kind: solubility

Measured solubility, Cn1c(=O)c2c(nc(/C=C/c3cccc(Cl)c3)n2C)n(C)c1=O [Compound 28a] : < 1000 µg/mL

###

# Target of assay: rat A1 cortical receptors (Rattus norvegicus)
# Construct: Rat cerebral cortical membranes and striatal membranes were prepared; from tissue; host or cells: rat cerebral cortex membranes
# Method: Radioligand binding, [3H]N6-phenylisopropyladenosine ([3H]PIA), rat cortical A1 receptors
# Experimental parameters: Table I; vs [3H]PIA (1 nM), rat A1 receptors; read-out: Ki (A1)
pKi: −log10 of the molar value.
Quantity kind: pKi

Example molecules with recorded pKi:
Molecule: Cn1c(=O)c2[nH]c(/C(F)=C/c3ccccc3)nc2n(C)c1=O
pKi: 5.66
//
Molecule: C=CCn1c(=O)c2c(nc(/C=C/c3cc(OC)c(OC)c(OC)c3)n2C)n(CC=C)c1=O
pKi: 5.71
//
Molecule: CCn1c(=O)c2[nH]c(/C=C/c3cc(OC)c(OC)c(OC)c3)nc2n(CC)c1=O [Compound 45a]
pKi: 6.07
//
Molecule: Cn1c(=O)c2c(nc(/C=C/c3cccc(N(C(=O)OC(C)(C)C)C(=O)OC(C)(C)C)c3)n2C)n(C)c1=O
pKi: 4.97
//
Molecule: Cn1c(=O)c2c(nc(/C=C/c3cc(F)cc(F)c3)n2C)n(C)c1=O [Compound 34b]
pKi: 4.83

[a] Cn1c(=O)c2[nH]c(/C=C/c3cccc([N+](=O)[O-])c3)nc2n(C)c1=O [Compound 21a, 1,3-Dimethyl-8-(3-nitrostyryl)xanthine]
[b] COc1ccc(/C=C/c2nc3c(c(=O)n(C)c(=O)n3C)n2C)c(OC)c1OC [Compound 43b]
Req: Short answer wanted: higher pKi, a or b ? Please indicate the selected item by its label.
Resp: a

###

# Target of assay: rat A1 cortical receptors (Rattus norvegicus, UniProt P25099)
# Construct: Rat cerebral cortical membranes and striatal membranes were prepared; from tissue; host or cells: rat cerebral cortex membranes
# Method: Radioligand binding, [3H]N6-phenylisopropyladenosine ([3H]PIA), rat cortical A1 receptors
# Experimental parameters: Table III; vs [3H]PIA (1 nM); read-out: Ki (A1)
pKi: −log10 of the molar value.
Quantity kind: pKi

// solved cases for pKi follow
Compound: Cn1c(=O)c2c(nc(/C=C/C(=O)OC(C)(C)C)n2C)n(C)c1=O [C(O)OC(CH3)3 (Rβ = H)]
Target of assay: rat A1 cortical receptors (Rattus norvegicus, UniProt P25099)
Test value: 4.74
//
Compound: CCC/C=C/c1nc2c(c(=O)n(C)c(=O)n2C)n1C [n-propyl(Rβ = H)]
Target of assay: rat A1 cortical receptors (Rattus norvegicus, UniProt P25099)
Test value: 5.22

[A] Cn1c(=O)c2c(nc(/C=C/C(=O)Nc3ccccc3)n2C)n(C)c1=O [C(O)NH-phenyl(Rβ = H)]
[B] C/C(=C\c1nc2c(c(=O)n(C)c(=O)n2C)n1C)c1ccccc1 [phenyl (Rβ = Me)]
Req: Which entry has a larger number for pKi, A or B ? Reply with the label of the item you choose.
Resp: B
(B: 5.06, A: 4.30)

###

# Target of assay: rat A1 cortical receptors (Rattus norvegicus)
# Construct: Rat cerebral cortical membranes and striatal membranes were prepared; from tissue; host or cells: rat cerebral cortex membranes
# Method: Radioligand binding, [3H]N6-phenylisopropyladenosine ([3H]PIA), rat cortical A1 receptors
# Experimental parameters: Table I; vs [3H]PIA (1 nM), rat A1 receptors; read-out: Ki (A1)
Quantity kind: Ki (nM)

Compound: CCCn1c(=O)c2c(nc(/C=C/c3cccc(Cl)c3)n2C)n(CCC)c1=O [Compound 51b]
Ki (nM): 874

[I] Cn1c(=O)c2c(nc(/C=C/c3cccc(I)c3)n2C)n(C)c1=O [Compound 28c]
[II] COc1ccccc1/C=C/c1nc2c(c(=O)n(C)c(=O)n2C)n1C [Compound 17b]
Req: In terms of reported Ki, does I or II have the smaller number? Respond with the label that goes with your answer.
Resp: I
(I: 2370 nM, II: 4760 nM)

[A] CCCn1c(=O)c2[nH]c(/C=C/c3cccc(F)c3)nc2n(CCC)c1=O [Compound 50a]
[B] Cn1c(=O)c2c(nc(/C=C/c3cccc(Br)c3)n2C)n(C)c1=O [Compound 28b]
[C] Cn1c(=O)c2[nH]c(/C=C/c3cccc(O)c3)nc2n(C)c1=O
Req: Task field, ranking: reported Ki, descending order. # the answer lists labels in the order requested
Resp: B, C, A

###

# Target of assay: rat A1 cortical receptors (Rattus norvegicus)
# Construct: Rat cerebral cortical membranes and striatal membranes were prepared; from tissue; host or cells: rat cerebral cortex membranes
# Sequence (P25099 1-326): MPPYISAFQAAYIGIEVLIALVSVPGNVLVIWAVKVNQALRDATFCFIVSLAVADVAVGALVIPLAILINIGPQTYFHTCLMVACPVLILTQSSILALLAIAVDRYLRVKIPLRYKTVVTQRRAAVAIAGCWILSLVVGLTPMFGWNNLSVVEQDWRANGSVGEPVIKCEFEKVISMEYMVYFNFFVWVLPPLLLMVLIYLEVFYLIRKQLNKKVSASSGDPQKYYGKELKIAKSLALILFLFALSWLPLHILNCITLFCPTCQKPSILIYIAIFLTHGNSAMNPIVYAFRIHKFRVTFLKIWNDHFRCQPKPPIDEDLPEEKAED
# Method: Radioligand binding, [3H]N6-phenylisopropyladenosine ([3H]PIA), rat cortical A1 receptors
# Experimental parameters: 1.5 h; at 10^-5; vs [3H]PIA; read-out: Percent displacement of specific binding (A1)
Quantity kind: inhibition at 10 µM (%)

// worked examples, inhibition at 10 µM included
Compound: Cn1c(=O)c2c(nc(CCc3cccc(N)c3)n2C)n(C)c1=O [Compound 57]
inhibition at 10 µM / %: 15
//
Compound: COc1cc(/C=C/c2nc3c(c(=O)n(C)c(=O)n3C)n2C)cc(OC)c1 [Compound 33b]
inhibition at 10 µM / %: 12.5

[1] COc1cc(/C=C/c2nc3c(c(=O)n(C)c(=O)n3C)n2C)cc(OC)c1OC/C=C/CNC(C)=O [Compound 41]
[2] COc1ccc(/C=C/c2nc3c([nH]2)c(=O)n(C)c(=O)n3C)c(OC)c1OC [Compound 43a]
Req: # returns the entry with the larger inhibition at 10 µM; inputs 1 and 2 Your answer should be the label of the entry you select.
Resp: 2
(2: 26%, 1: 17%)
